For each record, write down the corresponding inhibition at 1 µM.
Target: human 11β-HSD1 (Homo sapiens)
Assay: scintillation proximity assay (SPA), microsomes of HEK-293 cells transfected with human 11β-HSD1
Settings: read-out: Inhibitory ratio h-HSD1, at 1.0 μM; averages of three determinations
Numbers only here, please. The scale is %.

Data request: Tell me the measured inhibition at 1 µM of Cc1coc2c1C(=O)C(=O)C=C2 , please.
Data returned: 9.9

Data request: Tell me the measured inhibition at 1 µM of Cc1coc2c1C(=O)C(=O)c1c-2ccc2c1CCC(=O)C2(C)C , please.
Data returned: 63.5

Data request: Tell me the measured inhibition at 1 µM of CC(=O)OC1CCc2c(ccc3c2C(=O)C(=O)c2c(CO)coc2-3)C1(C)C (stereo not shown) , please.
Data returned: 48.9

Data request: Tell me the measured inhibition at 1 µM of Cc1c(-c2ccsc2)oc2c1C(=O)C(=O)c1c-2ccc2c1CCCC2(C)C [Compound 27d] , please.
Data returned: 14.5

Data request: Tell me the measured inhibition at 1 µM of Cc1c(Br)oc2c1C(=O)C(=O)c1c-2ccc2c1C=CCC2(C)C , please.
Data returned: 70

Data request: Tell me the measured inhibition at 1 µM of CC1(C)CCCc2c1ccc1c2C(=O)C(=O)c2c-1oc(Cl)c2CO , please.
Data returned: 21.4

Data request: Tell me the measured inhibition at 1 µM of Cc1coc2c1C(=O)C(=O)c1c-2ccc2c1CCCC2(C)C , please.
Data returned: 76.6

Data request: Tell me the measured inhibition at 1 µM of Cc1c(CN(C)C)oc2c1C(=O)C(=O)c1c-2ccc2c1CCCC2(C)C [Compound 29a] , please.
Data returned: 92.1

Data request: Tell me the measured inhibition at 1 µM of CC(=O)Oc1c2c(c3ccc4c(c3c1OC(C)=O)CCCC4(C)C)OC[C@@H]2C , please.
Data returned: 5.1

Data request: Tell me the measured inhibition at 1 µM of Cc1coc2c1C(=O)C(=O)c1c-2ccc2c1CCC(O)C2(C)C (stereo not shown) , please.
Data returned: 40.6

* * *

The next entries give measured IC50 for human 11β-HSD1 (Homo sapiens).
Numbers only here, please. The scale is nM.

Data request: Tell me the measured IC50 of Cc1coc2c1C(=O)C(=O)c1ccccc1-2 [Compound 10] , please.
Data returned: 121

Data request: Tell me the measured IC50 of Cc1c(CO)oc2c1C(=O)C(=O)c1c-2ccc2c1CCCC2(C)C [Compound 28b] , please.
Data returned: 99.8

Data request: Tell me the measured IC50 of CC1(C)CCCc2c1ccc1c2C(=O)C(=O)c2c(CO)coc2-1 [Compound 30] , please.
Data returned: 57.8

Data request: Tell me the measured IC50 of Cc1c(-c2ccncc2)oc2c1C(=O)C(=O)c1c-2ccc2c1CCCC2(C)C [Compound 27c] , please.
Data returned: 126

* * *

Molecular target: human 11β-HSD1 (Homo sapiens, UniProt P28845)
Sequence (P28845 whole entry): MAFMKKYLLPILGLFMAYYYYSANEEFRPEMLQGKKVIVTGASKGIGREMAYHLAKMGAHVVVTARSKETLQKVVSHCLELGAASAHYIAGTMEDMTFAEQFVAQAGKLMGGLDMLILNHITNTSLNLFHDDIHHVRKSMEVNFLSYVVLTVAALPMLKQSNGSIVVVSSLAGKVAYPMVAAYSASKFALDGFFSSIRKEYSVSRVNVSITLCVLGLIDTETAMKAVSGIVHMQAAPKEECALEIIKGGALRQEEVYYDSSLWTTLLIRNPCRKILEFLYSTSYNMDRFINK
Assay: scintillation proximity assay (SPA), microsomes of HEK-293 cells transfected with human 11β-HSD1
Conditions: read-out: Inhibitory ratio h-HSD1, at 1.0 μM; averages of three determinations
For each record, write down the corresponding inhibition at 1 µM.
Numbers only here, please. The scale is %.

Data request: Tell me the measured inhibition at 1 µM of C[C@H]1COC2=C1C(=O)C(=O)c1c2ccc2c1CCCC2(C)C , please.
Data returned: 91.3

Data request: Tell me the measured inhibition at 1 µM of Cc1c(CO)oc2c1C(=O)C(=O)c1c-2ccc2c1CCCC2(C)C [Compound 28b] , please.
Data returned: 75.3

Data request: Tell me the measured inhibition at 1 µM of Cc1c(CN2CCOCC2)oc2c1C(=O)C(=O)c1c-2ccc2c1CCCC2(C)C [Compound 29c] , please.
Data returned: 45.2

Data request: Tell me the measured inhibition at 1 µM of CC1(C)C(=O)C=Cc2c1ccc1c2C(=O)C(=O)c2c(CO)coc2-1 , please.
Data returned: 53.9

Data request: Tell me the measured inhibition at 1 µM of CC(=O)OC1CCc2c(ccc3c2C(=O)C(=O)c2c(C)coc2-3)C1(C)C (stereo not shown) , please.
Data returned: 50.3

Data request: Tell me the measured inhibition at 1 µM of CC1(C)CCCc2c1ccc1c2C(=O)C(=O)c2c(CN3CCOCC3)coc2-1 [Compound 31b] , please.
Data returned: 16.9

Data request: Tell me the measured inhibition at 1 µM of Cc1coc2c1C(=O)C(=O)c1c-2ccc2c1C[C@@H](O)CC2(C)C , please.
Data returned: 63.9

Data request: Tell me the measured inhibition at 1 µM of Cc1c(COCO)oc2c1C(=O)C(=O)c1c-2ccc2c1CCCC2(C)C [Compound 28a] , please.
Data returned: 74.3

Data request: Tell me the measured inhibition at 1 µM of Cc1coc2c1C(=O)C(=O)c1c-2ccc2c1C(=O)C(O)=CC2(C)C , please.
Data returned: 38.5

Data request: Tell me the measured inhibition at 1 µM of Cc1coc2c1C(=O)C(=O)c1c-2ccc2c1C=CC(=O)C2(C)C , please.
Data returned: 57.2
